tested-system: PKBα (Homo sapiens, UniProt P31749)
Construct: pEBG-PKBa expressing full length PKBα; made in house; host or cells: 293 cells (pEBG-PKBα)
Sequence (P31749 whole entry, species assumed): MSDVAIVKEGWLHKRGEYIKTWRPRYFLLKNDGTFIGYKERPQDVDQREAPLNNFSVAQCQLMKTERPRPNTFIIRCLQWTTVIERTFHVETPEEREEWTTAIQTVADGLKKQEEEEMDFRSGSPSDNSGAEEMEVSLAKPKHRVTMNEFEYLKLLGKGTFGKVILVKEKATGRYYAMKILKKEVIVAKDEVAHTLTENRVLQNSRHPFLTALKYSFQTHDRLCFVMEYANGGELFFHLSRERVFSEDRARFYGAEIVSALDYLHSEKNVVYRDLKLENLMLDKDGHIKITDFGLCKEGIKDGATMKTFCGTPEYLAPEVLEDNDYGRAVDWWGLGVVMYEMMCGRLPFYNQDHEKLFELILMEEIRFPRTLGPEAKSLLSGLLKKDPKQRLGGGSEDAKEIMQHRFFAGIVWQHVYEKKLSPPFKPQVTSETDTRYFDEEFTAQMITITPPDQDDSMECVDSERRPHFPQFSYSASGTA
measurement-notes: Activity of PKBα towards synthetic peptides related to Crosstide
Type: biochemical
setup-conditions: GST-PKBα from 293 cells activated by PDK1; each peptide 30 μM
Think of 30% as a floor: if PKBα activity relative to peptide 1 (Crosstide) stands on it or above, it is Y; beneath it, N.

query: Is it the case that KPRTSSF [Peptide 8, ID; NO: 37] has PKBα activity relative to peptide 1 (Crosstide) reaching or exceeding 30%?
result: N

query: Is it the case that RPRTSSE [Peptide 15, ID; NO: 44] has PKBα activity relative to peptide 1 (Crosstide) reaching or exceeding 30%?
result: N

query: Is it the case that RPRTSSF [Peptide 2, ID; NO: 39] has PKBα activity relative to peptide 1 (Crosstide) reaching or exceeding 30%?
result: Y

query: Is it the case that RPRTSSV [Peptide 12, ID; NO: 41] has PKBα activity relative to peptide 1 (Crosstide) reaching or exceeding 30%?
result: Y

query: Is it the case that RPRTSSK [Peptide 14, ID; NO: 43] has PKBα activity relative to peptide 1 (Crosstide) reaching or exceeding 30%?
result: Y

query: Is it the case that RPRTSS [Peptide 5, ID; NO: 31] has PKBα activity relative to peptide 1 (Crosstide) reaching or exceeding 30%?
result: N

query: Is it the case that RPRTSSA [Peptide 13, ID; NO: 42] has PKBα activity relative to peptide 1 (Crosstide) reaching or exceeding 30%?
result: N

query: Is it the case that RPKTSSF [Peptide 9, ID; NO: 38] has PKBα activity relative to peptide 1 (Crosstide) reaching or exceeding 30%?
result: N

query: Is it the case that RPRTSAF [Peptide 3, ID; NO: 32] has PKBα activity relative to peptide 1 (Crosstide) reaching or exceeding 30%?
result: N

query: Is it the case that GRPRTSSFAEG [Peptide 1, ID; NO: 30, reference compound] has PKBα activity relative to peptide 1 (Crosstide) reaching or exceeding 30%?
result: Y

query: Is it the case that RPRTSSL [Peptide 11, ID; NO: 40] has PKBα activity relative to peptide 1 (Crosstide) reaching or exceeding 30%?
result: Y

query: Is it the case that RPRTSTF [Peptide 6, ID; NO: 35] has PKBα activity relative to peptide 1 (Crosstide) reaching or exceeding 30%?
result: Y

query: Is it the case that PRTSSF [Peptide 4, ID; NO: 33] has PKBα activity relative to peptide 1 (Crosstide) reaching or exceeding 30%?
result: N

query: Is it the case that RPRAATF [Peptide 7] has PKBα activity relative to peptide 1 (Crosstide) reaching or exceeding 30%?
result: Y

====

tested-system: SGK1 (Homo sapiens, UniProt O00141, S422D)
Construct: made in house; host or cells: human embryonic kidney 293 cells (pEBG-2T vector)
Sequence (O00141 61-431 S422D): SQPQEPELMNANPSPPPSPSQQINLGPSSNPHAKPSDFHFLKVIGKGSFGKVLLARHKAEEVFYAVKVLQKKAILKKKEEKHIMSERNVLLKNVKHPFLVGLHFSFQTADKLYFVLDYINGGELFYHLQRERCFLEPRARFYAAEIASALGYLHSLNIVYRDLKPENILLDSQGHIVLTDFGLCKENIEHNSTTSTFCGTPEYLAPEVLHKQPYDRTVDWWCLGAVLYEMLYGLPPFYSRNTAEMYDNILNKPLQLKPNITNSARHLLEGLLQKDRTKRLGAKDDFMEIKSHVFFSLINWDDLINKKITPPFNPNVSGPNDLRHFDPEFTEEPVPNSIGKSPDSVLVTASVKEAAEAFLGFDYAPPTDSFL
measurement-notes: Activity of SGK1 toward synthetic peptides related to Crosstide
Type: biochemical
setup-conditions: GST-ΔN-SGK1[S422D] from 293 cells; each peptide 30 μM; average of two experiments
assay-readout: SGK1 activity % relative to peptide 1 (Crosstide)

query: # input substance: RPRTSSA [Peptide 13, ID; NO: 42] ; wanted: its SGK1 activity % relative to peptide 1 (Crosstide)
result: 49%

query: # input substance: RPRTSSK [Peptide 14, ID; NO: 43] ; wanted: its SGK1 activity % relative to peptide 1 (Crosstide)
result: 84%

query: # input substance: RPRTSSL [Peptide 11, ID; NO: 40] ; wanted: its SGK1 activity % relative to peptide 1 (Crosstide)
result: 108%

query: # input substance: PRTSSF [Peptide 4, ID; NO: 33] ; wanted: its SGK1 activity % relative to peptide 1 (Crosstide)
result: <1%

query: # input substance: KPRTSSF [Peptide 8, ID; NO: 37] ; wanted: its SGK1 activity % relative to peptide 1 (Crosstide)
result: <1%

query: # input substance: RPKTSSF [Peptide 9, ID; NO: 38] ; wanted: its SGK1 activity % relative to peptide 1 (Crosstide)
result: 11%

query: # input substance: RPRTSS [Peptide 5, ID; NO: 31] ; wanted: its SGK1 activity % relative to peptide 1 (Crosstide)
result: 5.1%

query: # input substance: RPRTSSE [Peptide 15, ID; NO: 44] ; wanted: its SGK1 activity % relative to peptide 1 (Crosstide)
result: 28%

query: # input substance: RPRTSAF [Peptide 3, ID; NO: 32] ; wanted: its SGK1 activity % relative to peptide 1 (Crosstide)
result: <1%

query: # input substance: RPRTSSF [Peptide 2, ID; NO: 39] ; wanted: its SGK1 activity % relative to peptide 1 (Crosstide)
result: 135%

query: # input substance: GRPRTSSFAEG [Peptide 1, ID; NO: 30, reference compound] ; wanted: its SGK1 activity % relative to peptide 1 (Crosstide)
result: 100%

query: # input substance: RPRTSSV [Peptide 12, ID; NO: 41] ; wanted: its SGK1 activity % relative to peptide 1 (Crosstide)
result: 90%

query: # input substance: RPRTSTF [Peptide 6, ID; NO: 35] ; wanted: its SGK1 activity % relative to peptide 1 (Crosstide)
result: 129%
